- measurement_target: SHP2 (Homo sapiens)
- Sequence (Q06124 whole entry): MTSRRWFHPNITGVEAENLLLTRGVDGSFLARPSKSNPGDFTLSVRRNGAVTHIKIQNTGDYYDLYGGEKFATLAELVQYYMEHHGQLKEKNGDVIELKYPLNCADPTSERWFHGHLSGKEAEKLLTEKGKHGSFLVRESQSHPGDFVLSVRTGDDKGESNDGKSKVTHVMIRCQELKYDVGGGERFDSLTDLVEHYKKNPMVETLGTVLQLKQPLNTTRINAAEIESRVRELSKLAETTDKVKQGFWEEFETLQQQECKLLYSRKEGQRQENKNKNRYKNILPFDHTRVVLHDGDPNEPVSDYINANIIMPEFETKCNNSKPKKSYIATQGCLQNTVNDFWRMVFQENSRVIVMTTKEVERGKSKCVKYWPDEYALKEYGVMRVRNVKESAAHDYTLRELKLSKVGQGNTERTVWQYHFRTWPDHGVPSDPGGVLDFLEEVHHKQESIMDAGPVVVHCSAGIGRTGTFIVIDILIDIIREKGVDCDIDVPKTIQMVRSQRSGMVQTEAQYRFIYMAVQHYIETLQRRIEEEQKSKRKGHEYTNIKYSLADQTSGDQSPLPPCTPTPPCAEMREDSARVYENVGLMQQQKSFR
- experiment_notes: SHP2 Allosteric Inhibition Assay
- Format: biochemical
- applied_conditions: 0.5 nM SHP2 activated with 0.5 μM peptide IRS1_pY1172(dPEG8)pY1222; surrogate substrate DiFMUP, prompt fluorescence, 25° C.
Entries whose AC50 is below 40 nM take satisfied; entries at or above 40 nM take not satisfied.

Worked examples follow.
{"compound": "N[C@@H]1C[C@H](O)CC12CCN(c1cnc(Sc3ccnc(Cl)c3Cl)cn1)CC2", "category_label": "satisfied"}
{"compound": "CO[C@H]1C[C@@H](N)C2(CCN(c3cnc(Sc4ccnc(N)c4Cl)cn3)CC2)C1", "category_label": "satisfied"}
{"compound": "CC1(N)CCN(c2cnc(Sc3cccnc3C(F)(F)F)cn2)CC1", "category_label": "not satisfied"}
{"compound": "C[C@@H]1OCC2(CCN(c3cnc(Sc4ccnc(N)c4Cl)cn3)CC2)[C@@H]1N [Example 3]", "category_label": "satisfied"}
{"compound": "Nc1nccc(Sc2cnc(N3CCC4(CC3)C[C@H](O)[C@@H](O)[C@H]4N)cn2)c1Cl", "category_label": "not satisfied"}
{"compound": "COC(=O)C1(CN)CCN(c2cnc(Sc3ccnc(N)c3Cl)cn2)CC1", "category_label": "not satisfied"}
{"compound": "C[C@@H]1OCC2(CCN(c3cnc(Sc4ccnc(N)c4Cl)cn3)CC2)[C@@H]1N [Example 115]", "category_label": "satisfied"}
{"compound": "N[C@@H]1CCCC12CCN(c1cnc(Sc3cccc(O)c3)cn1)CC2", "category_label": "satisfied"}
{"compound": "Nc1cc(Sc2cnc(N3CCC4(CCC[C@H]4N)CC3)cn2)c(Cl)c(N)n1", "category_label": "satisfied"}
{"compound": "C[C@@H]1OCC2(CCN(c3cnc(Sc4ccnc(F)c4)cn3)CC2)[C@@H]1N", "category_label": "not satisfied"}

query: State whether 40 nM exceeds AC50 recorded for `Cc1cccc(Sc2cnc(N3CCC4(CCC[C@H]4N)CC3)cn2)c1` .
result: not satisfied

query: A record lists `CC1(CN)CCN(c2cnc(Sc3cccnc3C(F)(F)F)cn2)CC1` . Is its AC50 below 40 nM?
result: not satisfied

query: Here's an entry: `Nc1cccc(Sc2cnc(N3CCC4(CCC[C@H]4N)CC3)cn2)c1` . Is its AC50 below 40 nM?
result: satisfied

query: Please indicate whether the reported AC50 of `Nc1nccc(Sc2cnc(N3CCC(N)(CO)CC3)cn2)c1Cl` is strictly below 40 nM.
result: not satisfied
